meta.source: patent US6689883B1

Target: full length KDR receptor in NIH3T3 cells (Homo sapiens)
Construct: NIH3T3 cells expressing the full length KDR receptor were grown in DMEM; expressed in transfected cells; host or cells: NIH3T3 cells (G418 selection)
Sequence (P35968 20-1356): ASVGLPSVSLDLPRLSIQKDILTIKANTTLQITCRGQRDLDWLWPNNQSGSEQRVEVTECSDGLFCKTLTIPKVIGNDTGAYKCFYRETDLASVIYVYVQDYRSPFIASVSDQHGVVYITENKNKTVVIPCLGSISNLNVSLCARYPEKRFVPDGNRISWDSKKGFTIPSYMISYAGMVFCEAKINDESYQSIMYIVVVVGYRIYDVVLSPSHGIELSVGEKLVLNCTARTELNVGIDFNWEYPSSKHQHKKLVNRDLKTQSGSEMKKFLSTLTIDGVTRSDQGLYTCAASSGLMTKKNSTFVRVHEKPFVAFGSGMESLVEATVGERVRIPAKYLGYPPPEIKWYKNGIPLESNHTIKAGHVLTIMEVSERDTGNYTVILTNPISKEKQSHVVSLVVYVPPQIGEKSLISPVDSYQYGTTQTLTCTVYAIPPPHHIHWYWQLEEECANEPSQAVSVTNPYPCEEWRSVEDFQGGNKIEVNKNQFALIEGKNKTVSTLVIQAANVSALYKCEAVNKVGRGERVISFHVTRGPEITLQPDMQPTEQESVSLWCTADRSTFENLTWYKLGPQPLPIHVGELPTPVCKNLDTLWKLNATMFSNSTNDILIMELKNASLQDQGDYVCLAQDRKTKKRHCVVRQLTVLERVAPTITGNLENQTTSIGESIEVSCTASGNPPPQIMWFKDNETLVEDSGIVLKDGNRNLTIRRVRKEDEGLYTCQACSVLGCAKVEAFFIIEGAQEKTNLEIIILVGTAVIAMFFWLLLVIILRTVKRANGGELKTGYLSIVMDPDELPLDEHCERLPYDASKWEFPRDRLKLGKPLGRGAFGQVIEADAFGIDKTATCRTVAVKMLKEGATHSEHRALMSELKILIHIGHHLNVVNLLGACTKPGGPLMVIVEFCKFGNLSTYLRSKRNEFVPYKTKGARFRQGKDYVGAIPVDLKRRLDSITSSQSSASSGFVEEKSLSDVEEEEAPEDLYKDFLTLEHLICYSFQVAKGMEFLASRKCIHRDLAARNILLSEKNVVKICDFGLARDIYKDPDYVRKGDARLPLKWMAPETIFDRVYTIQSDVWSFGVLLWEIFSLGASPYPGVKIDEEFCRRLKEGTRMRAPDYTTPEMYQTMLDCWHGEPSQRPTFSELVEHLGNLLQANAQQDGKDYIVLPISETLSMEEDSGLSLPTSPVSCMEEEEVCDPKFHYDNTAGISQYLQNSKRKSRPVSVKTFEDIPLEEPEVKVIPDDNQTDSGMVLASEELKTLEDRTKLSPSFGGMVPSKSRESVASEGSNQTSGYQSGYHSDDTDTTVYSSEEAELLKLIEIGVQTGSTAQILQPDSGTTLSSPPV
Test protocol: Cell Mechanistic Assay-Inhibition of 3T3 KDR Phosphorylation
Format: cell-based
Conditions: NIH3T3 cells expressing KDR, VEGF 30 ng/ml stimulation
Description: NIH3T3 cells expressing the full length KDR receptor were grown in DMEM (Life Technologies, Inc., Grand Island, N.Y.) supplemented with 10% newborn calf serum, low glucose, 25 mM/L sodium pyruvate, pyridoxine hydrochloride and 0.2 mg/ml of G418 (Life Technologies Inc., Grand Island, N.Y.). […] Optical densities (OD) were determined spectrophotometrically at 450 nm in a 96-well plate reader (SpectraMax 250, Molecular Devices). […]
pIC50: −log10 of the molar value.
Value kind: pIC50

Look over these answered cases.
For the compound `CNC(=O)c1cc(COc2nnc(Nc3ccc(Cl)cc3)c3ccsc23)ccn1` , what pIC50 is on record? ≥ 7.70

For the compound `COc1cccc(Nc2nnc(Nc3ccc4ncsc4c3)c3ccccc23)c1` , what pIC50 is on record? ≥ 7.70

Continuing:
For the compound `NC(=O)c1cc(COc2nnc(Nc3ccc(Cl)cc3)c3ccsc23)ccn1` , what pIC50 is on record? ≥ 7.70

* * *

Target: cytosolic kinase domain of KDR kinase (Homo sapiens)
Construct: The cytosolic kinase domain of KDR kinase was expressed as a 6His fusion protein in Sf9 insect cells; 6His
Test protocol: KDR Assay (ELISA, poly(Glu4;Tyr1) phosphorylation)
Conditions: 3.3 μM ATP, 60 minutes at room temperature
Value kind: IC50

Look over these answered cases.
Notebook: pull reported IC50 for cytosolic kinase domain of KDR kinase (Homo sapiens), entry `CNC(=O)c1cc(COc2nnc(Nc3ccc4sc(C)nc4c3)c3ccoc23)ccn1` ≤ 100 nM

Notebook: pull reported IC50 for cytosolic kinase domain of KDR kinase (Homo sapiens), entry `Brc1cccc(Nc2nnc(Nc3ccc4ncsc4c3)c3ccccc23)c1` ≤ 100 nM

Notebook: pull reported IC50 for cytosolic kinase domain of KDR kinase (Homo sapiens), entry `CNC(=O)c1cc(COc2nnc(Nc3ccc4c(c3)CCC4)c3ccsc23)ccn1` ≤ 100 nM

Continuing:
Notebook: pull reported IC50 for cytosolic kinase domain of KDR kinase (Homo sapiens), entry `CNC(=O)c1cc(COc2nnc(Nc3ccc4c(c3)OCO4)c3ccoc23)ccn1` ≤ 100 nM

Notebook: pull reported IC50 for cytosolic kinase domain of KDR kinase (Homo sapiens), entry `c1nc2c(Nc3ccc4ncsc4c3)nnc(Nc3ccc4ncsc4c3)c2[nH]1` > 1000 nM

Notebook: pull reported IC50 for cytosolic kinase domain of KDR kinase (Homo sapiens), entry `CNC(=O)c1cc(COc2nnc(Nc3ccc(F)cc3)c3ccoc23)ccn1` ≤ 100 nM

Notebook: pull reported IC50 for cytosolic kinase domain of KDR kinase (Homo sapiens), entry `Brc1ccc2c(c1)CCN2c1nnc(OCc2ccncc2)c2occc12` ≤ 100 nM

Notebook: pull reported IC50 for cytosolic kinase domain of KDR kinase (Homo sapiens), entry `Clc1ccc(Nc2ncc(Sc3ccncc3)c3ccccc23)cc1` ≤ 100 nM

Notebook: pull reported IC50 for cytosolic kinase domain of KDR kinase (Homo sapiens), entry `CNC(=O)c1cc(COc2nnc(Nc3ccc(Cl)cc3)c3ccsc23)ccn1` ≤ 100 nM

Notebook: pull reported IC50 for cytosolic kinase domain of KDR kinase (Homo sapiens), entry `CNC(=O)c1cc(COc2nnc(Nc3ccccc3)c3ccoc23)ccn1` ≤ 100 nM

Notebook: pull reported IC50 for cytosolic kinase domain of KDR kinase (Homo sapiens), entry `c1cc2c(Nc3ccc4[nH]ncc4c3)nnc(Nc3ccc4[nH]ncc4c3)c2o1` > 1000 nM

Notebook: pull reported IC50 for cytosolic kinase domain of KDR kinase (Homo sapiens), entry `COc1cccc(Nc2nnc(Nc3ccc4ncsc4c3)c3ccccc23)c1` ≤ 100 nM

Notebook: pull reported IC50 for cytosolic kinase domain of KDR kinase (Homo sapiens), entry `CNC(=O)c1cc(COc2nnc(Nc3ccc(OC)cc3)c3ccoc23)ccn1` ≤ 100 nM

Notebook: pull reported IC50 for cytosolic kinase domain of KDR kinase (Homo sapiens), entry `c1ccc2c(Nc3ccc4c(c3)CCC4)ncc(Sc3ccncc3)c2c1` ≤ 100 nM

Notebook: pull reported IC50 for cytosolic kinase domain of KDR kinase (Homo sapiens), entry `c1nc2c(Nc3ccc4[nH]ncc4c3)nnc(Nc3ccc4[nH]ncc4c3)c2[nH]1` > 1000 nM

Notebook: pull reported IC50 for cytosolic kinase domain of KDR kinase (Homo sapiens), entry `CNC(=O)c1cc(COc2nnc(Nc3cccc(OC)c3)c3ccoc23)ccn1` ≤ 100 nM

Notebook: pull reported IC50 for cytosolic kinase domain of KDR kinase (Homo sapiens), entry `CNC(=O)c1cc(COc2nnc(Nc3ccc(C(F)(F)F)cc3)c3ccsc23)ccn1` ≤ 100 nM

Notebook: pull reported IC50 for cytosolic kinase domain of KDR kinase (Homo sapiens), entry `CNC(=O)c1cc(COc2nnc(Nc3cc(C)cc(C)c3)c3ccoc23)ccn1` ≤ 100 nM

* * *

Measured IC50 of individual entries
Target: cytosolic kinase domain of KDR kinase (Homo sapiens)
Construct: The cytosolic kinase domain of KDR kinase was expressed as a 6His fusion protein in Sf9 insect cells; 6His
Test protocol: KDR Assay (ELISA, poly(Glu4;Tyr1) phosphorylation)
Conditions: 3.3 μM ATP, 60 minutes at room temperature

Look over these answered cases.
For the molecule NC(=O)c1cc(Cc2cnc(Nc3ccc(Cl)cc3)c3ccccc23)ccn1 [Example 12] , what IC50 is on record? ≤ 100 nM

For the molecule c1ccc2c(Nc3ccc4c(c3)CCC4)ncc(Cc3ccncc3)c2c1 [Example 6] , what IC50 is on record? ≤ 100 nM

For the molecule c1nc2ccc(Nc3nnc(Nc4ccc5ncsc5c4)c4sccc34)cc2s1 [Example 75] , what IC50 is on record? ≤ 100 nM

For the molecule CN(C)C(=O)c1cc(COc2nnc(Nc3ccc(Cl)cc3)c3ccoc23)ccn1 [Example 81] , what IC50 is on record? > 1000 nM

Continuing:
For the molecule O=C(NC1CC1)c1cc(COc2nnc(Nc3ccc(Cl)cc3)c3ccoc23)ccn1 [Example 82B] , what IC50 is on record? ≤ 100 nM

* * *

Target: cytosolic kinase domain of KDR kinase (Homo sapiens)
Construct: The cytosolic kinase domain of KDR kinase was expressed as a 6His fusion protein in Sf9 insect cells; 6His; made in house; host or cells: Sf9 insect cells
Test protocol: KDR Assay (ELISA, poly(Glu4;Tyr1) phosphorylation)
Assay type: biochemical
Conditions: 3.3 μM ATP, 60 minutes at room temperature
pIC50: −log10 of the molar value.
Measured pIC50 of individual entries

Look over these answered cases.
For the molecule Clc1ccc(Nc2nnc(OCc3ccncc3)c3sccc23)cc1 [Example 8] , what pIC50 is on record? ≥ 7.00

For the molecule COc1cc(Nc2nnc(Nc3ccc4ncsc4c3)c3sccc23)cc(OC)c1OC [Example 80] , what pIC50 is on record? < 6.00

For the molecule Cc1ccc(Nc2nnc(Nc3ccc4ncsc4c3)c3sccc23)c(C)c1 [Example 78] , what pIC50 is on record? ≥ 7.00

For the molecule c1cc2c(Nc3ccc4nn[nH]c4c3)nnc(Nc3ccc4nn[nH]c4c3)c2s1 [Example 26] , what pIC50 is on record? < 6.00

Now for the molecule whose pIC50 we want.
For the molecule CNC(=O)c1cc(COc2nnc(Nc3ccc(C(F)(F)F)cc3)c3ccoc23)ccn1 [Example 42] , what pIC50 is on record? ≥ 7.00

* * *

Measured pIC50 of individual entries
Target: cytosolic kinase domain of KDR kinase (Homo sapiens, UniProt P35968)
Construct: The cytosolic kinase domain of KDR kinase was expressed as a 6His fusion protein in Sf9 insect cells; 6His
Sequence (P35968 834-1162 limits assumed): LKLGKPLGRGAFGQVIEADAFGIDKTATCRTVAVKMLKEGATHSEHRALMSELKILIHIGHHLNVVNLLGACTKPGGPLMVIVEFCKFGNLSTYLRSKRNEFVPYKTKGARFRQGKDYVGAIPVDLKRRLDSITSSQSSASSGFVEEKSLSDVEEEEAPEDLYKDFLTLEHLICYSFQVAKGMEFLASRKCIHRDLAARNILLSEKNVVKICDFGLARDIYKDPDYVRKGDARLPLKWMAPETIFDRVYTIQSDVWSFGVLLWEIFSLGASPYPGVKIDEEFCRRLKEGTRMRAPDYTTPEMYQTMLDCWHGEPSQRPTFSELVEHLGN
Test protocol: KDR Assay (ELISA, poly(Glu4;Tyr1) phosphorylation)
Conditions: 3.3 μM ATP, 60 minutes at room temperature
pIC50: −log10 of the molar value.

For the compound Clc1ccc(Nc2nnc(Nc3ccc4nn[nH]c4c3)c3ccccc23)cc1 [Example 96] , what pIC50 is on record? ≥ 7.00

* * *

Target: cytosolic kinase domain of KDR kinase (Homo sapiens, UniProt P35968)
Construct: The cytosolic kinase domain of KDR kinase was expressed as a 6His fusion protein in Sf9 insect cells; 6His
Test protocol: KDR Assay (ELISA, poly(Glu4;Tyr1) phosphorylation)
Conditions: 3.3 μM ATP, 60 minutes at room temperature
pIC50: −log10 of the molar value.
Measured pIC50 of individual entries

For the compound `CNC(=O)c1cc(COc2nnc(Nc3ccc(Cl)c(Cl)c3)c3ccoc23)ccn1` , what pIC50 is on record? ≥ 7.00

For the compound `CNC(=O)c1cc(COc2nnc(Nc3ccc(C)c(OC)c3)c3ccoc23)ccn1` , what pIC50 is on record? ≥ 7.00

For the compound `CNC(=O)c1cc(COc2nnc(Nc3ccc(OC(F)(F)F)cc3)c3ccoc23)ccn1` , what pIC50 is on record? ≥ 7.00

For the compound `c1cc2c(Nc3ccc4nn[nH]c4c3)nnc(Nc3ccc4nn[nH]c4c3)c2o1` , what pIC50 is on record? < 6.00

For the compound `CC(C)c1ccc(Nc2nnc(Nc3ccc4ncsc4c3)c3ccccc23)cc1` , what pIC50 is on record? ≥ 7.00
